Entries and their measured inhibition at 30 µg/mL follow.
# Tested on: A498
# ASSAY SUMMARY: Cytotoxicity against human A498 cells assessed as growth inhibition after at 30 ug/ml 48 hrs by SRB assay
# Assay type: functional
# RUN PARAMETERS: A498, 48 h

| COMPOUND STRING | inhibition at 30 µg/mL, % |
| --- | --- |
| CC(=O)O[C@H]1C(=O)[C@@]2(CO)[C@H]([C@H](OC(=O)c3ccccc3)[C@]3(O)CC(=O)C(C)=C1C3(C)C)[C@]1(OC(C)=O)CO[C@@H]1C[C@@H]2O | 79.8 |
| CC(=O)OC[C@]1(O)[C@@H](OC(C)=O)C[C@H](OC(C)=O)[C@]2(C)[C@@H]1[C@H](O)[C@]1(C(C)(C)O)C[C@H](O)C(C)=C1[C@@H](O)[C@@H]2OC(=O)c1ccccc1 | 100 |
| CC(=O)O[C@@]12CO[C@@H]1C[C@H](O)[C@]1(C)[C@@H]2[C@H](OC(=O)c2ccccc2)[C@]23C[C@H](O)C(C)=C2[C@@]1(O)C(=O)OC3(C)C | 27.9 |
| CC(=O)OC[C@H]1[C@H]2[C@H](O)[C@]3(C(C)(C)O)C[C@H](O)C(C)=C3[C@@H](O)[C@H](OC(=O)c3ccccc3)[C@]2(C)[C@@H](OC(C)=O)C[C@@H]1OC(C)=O | 83 |
| CC(=O)O[C@@]12CO[C@@H]1C[C@H](O)[C@@]1(C)C(=O)[C@H](O)C3=C(C)C(=O)C[C@@](O)([C@@H](OC(=O)c4ccccc4)[C@H]21)C3(C)C | 29.7 |

###

# Tested on: A498
# ASSAY SUMMARY: Cytotoxicity against human A498 cells assessed as growth inhibition after at 30 ug/ml 48 hrs by SRB assay
# Type: functional
# RUN PARAMETERS: A498, 48 h
Entries and their measured inhibition at 30 µg/mL follow.

| COMPOUND | inhibition at 30 µg/mL |
| --- | --- |
| C=C1[C@@H](O)C[C@H](OC(C)=O)[C@@]2(COC(=O)c3ccccc3)[C@@H](OC(C)=O)[C@H](OC(C)=O)[C@]3(O)[C@@]4(C)CO[C@]3(C)C(=O)C[C@H]4[C@@H](OC(C)=O)[C@H]12 [TAXININ M] | 24.3% |
| CC(=O)O[C@H]1C[C@H](OC(C)=O)[C@]2(C)[C@@H]3[C@H](OC[C@]13OC(=O)c1ccccc1)[C@]1(C(C)(C)O)C[C@H](O)C(C)=C1[C@@H](O)[C@@H]2OC(C)=O [TASUMATROL G] | 15.3% |
| CC(=O)O[C@@]12CO[C@@H]1C[C@H](O)[C@@]1(CO)C(=O)[C@H](O)C3=C(C)[C@@H](O)C[C@@](O)([C@@H](OC(=O)c4ccccc4)[C@H]21)C3(C)C | 16.6% |
